FYI, the data here is from PubChem BioAssay (NCI).

Some compounds, each annotated with its measured TGI.
# Test system: HS 578T breast
# ASSAY REMARKS: NCI tumour cell line growth inhibition, 48 h

# example entries with known answers
Recall the recorded TGI for O=C(C=P(c1ccccc1)(c1ccccc1)c1ccccc1)c1ccccc1-c1ccccc1C(=O)C=P(c1ccccc1)(c1ccccc1)c1ccccc1 with HS 578T breast and state it.
0.317 µM

And for COc1oc(C2C/C(=C/C(C)=C/C(C)=C/C(C)=C/c3ccc([N+](=O)[O-])cc3)CO2)c(C)c(=O)c1C (stereo not drawn) ?
> 31.6 µM

And for CC1=C(C(=S)Nc2ccc(Cl)c(C(=O)OC(C)C)c2)SCCO1 ?
75.1 µM

Next item in the queue.
Recall the recorded TGI for CC[C@@]1(O)C(=O)OCc2c1cc1n(c2=O)Cc2c-1nc1ccc(N)cc1c2CC[Si](C)(C)C with HS 578T breast and state it.
27.3 µM
